Values compiled from paper PMC3634028.

- System: Escherichia coli D21
- Assay type: cell-based
- applied_conditions: D21, 18 h
- From the text: The strains used for the antimicrobial assays were the Gram-negative bacteria Acinetobacter baumani ATCC 19606, Escherichia coli D21, Pseudomonas aeruginosa ATCC 27853, and Pseudomonas syringae pv tabaci 1918NCPPB and the Gram-positive bacteria Bacillus megaterium Bm11, Staphylococcus aureus ATCC 25923, and Staphylococcus epidermidis ATCC 12228. […] The bacterial growth was aseptically measured by absorbance at 590 nm with a spectrophotometer (UV-1700 Pharma Spec Shimadzu, Tokyo, Japan). […]
Where a SMILES comes first, the peptide text is derived from it.
Field: MIC 100. Provide a value for each of the compounds that follow.

CC(C)[C@H](NC(=O)[C@H](Cc1ccccc1)NC(=O)[C@H](CCCCN)NC(=O)C1(NC(=O)[C@H](Cc2c[nH]c3ccccc23)NC(=O)[C@H](CCCNC(=N)N)NC(=O)[C@@H](Cc2ccc3ccccc3c2)NC(=O)[C@@H](N)Cc2c[nH]cn2)Cc2ccccc2C1)C(N)=O [Peptide 8] (HELM PEPTIDE1{H.[O=C([C@@H](Cc1ccc2ccccc2c1)N[*:1])[*:2]].R.W.[O=C(C1(N[*:1])Cc2ccccc2C1)[*:2]].K.F.V.[am]}$$$$V2.0) : 12.5 µM

Okay, now this compound:
QUERY: Please report the recorded MIC 100 for CC(C)[C@H](NC(=O)[C@H](Cc1ccccc1)NC(=O)[C@H](CCCCN)NC(=O)CNC(=O)[C@H](Cc1c[nH]c2ccccc12)NC(=O)[C@H](CCCNC(=N)N)NC(=O)[C@@H](Cc1ccc2ccccc2c1)NC(=O)[C@@H](N)Cc1c[nH]cn1)C(N)=O [DNal, reference compound] (HELM PEPTIDE1{H.[O=C([C@@H](Cc1ccc2ccccc2c1)N[*:1])[*:2]].R.W.G.K.F.V.[am]}$$$$V2.0) .
RESULT: >100 µM

====

- Test system: HaCaT keratinocyte cell line
- method_notes: Cytotoxic activity, MTT colorimetric method
- Format: cell-based, human
- applied_conditions: highest peptide concentration used (100 µM), 24 h
Where a SMILES comes first, the peptide text is derived from it.
reported_endpoint: cell death / killing of human keratinocytes

CC(C)[C@H](NC(=O)[C@H](Cc1ccccc1)NC(=O)[C@H](CCCCN)NC(=O)[C@@H](NC(=O)[C@H](Cc1c[nH]c2ccccc12)NC(=O)[C@H](CCCNC(=N)N)NC(=O)[C@@H](Cc1ccc2ccccc2c1)NC(=O)[C@@H](N)Cc1c[nH]cn1)C(C)(C)C)C(N)=O [Peptide 3] (HELM PEPTIDE1{H.[O=C([C@@H](Cc1ccc2ccccc2c1)N[*:1])[*:2]].R.W.[CC(C)(C)[C@H](N[*:1])C(=O)[*:2]].K.F.V.[am]}$$$$V2.0) : less than 30%
CC(C)[C@H](NC(=O)[C@H](Cc1ccccc1)NC(=O)[C@H](CCCCN)NC(=O)C1(NC(=O)[C@H](Cc2c[nH]c3ccccc23)NC(=O)[C@H](CCCNC(=N)N)NC(=O)[C@@H](Cc2ccc3ccccc3c2)NC(=O)[C@@H](N)Cc2c[nH]cn2)CC1)C(N)=O [Peptide 4] (HELM PEPTIDE1{H.[O=C([C@@H](Cc1ccc2ccccc2c1)N[*:1])[*:2]].R.W.[O=C(C1(N[*:1])CC1)[*:2]].K.F.V.[am]}$$$$V2.0) : less than 30%
CC(C)[C@H](NC(=O)[C@H](Cc1ccccc1)NC(=O)[C@H](CCCCN)NC(=O)C1(NC(=O)[C@H](Cc2c[nH]c3ccccc23)NC(=O)[C@H](CCCNC(=N)N)NC(=O)[C@@H](Cc2ccc3ccccc3c2)NC(=O)[C@@H](N)Cc2c[nH]cn2)Cc2ccccc2C1)C(N)=O [Peptide 8] (HELM PEPTIDE1{H.[O=C([C@@H](Cc1ccc2ccccc2c1)N[*:1])[*:2]].R.W.[O=C(C1(N[*:1])Cc2ccccc2C1)[*:2]].K.F.V.[am]}$$$$V2.0) : 50–100%
CC(C)[C@H](NC(=O)[C@H](Cc1ccccc1)NC(=O)[C@H](CCCCN)NC(=O)[C@H](Cc1ccccc1)NC(=O)[C@H](Cc1c[nH]c2ccccc12)NC(=O)[C@H](CCCNC(=N)N)NC(=O)[C@@H](Cc1ccc2ccccc2c1)NC(=O)[C@@H](N)Cc1c[nH]cn1)C(N)=O [Peptide 9] (HELM PEPTIDE1{H.[O=C([C@@H](Cc1ccc2ccccc2c1)N[*:1])[*:2]].R.W.F.K.F.V.[am]}$$$$V2.0) : less than 30%
